Origin of values: patent US8895695B2

# assayComment: in vitro
# Format: in vitro ADME
# measurementSetup: rat, plasma
Bridge positions count the residues as written; N and C are the ends. Square brackets hold non-standard residues; d marks the D form. Peptide text beside a SMILES is read from it. 2Nal = N[C@@H](Cc1ccc2ccccc2c1)C(=O)O; Cit = NC(=O)NCCC[C@H](N)C(=O)O
endpointLabel: half-life at 10 μM (h)
Give the quantity in h, number only.

{"compound": "N=C(N)NCCC[C@@H]1NC(=O)[C@@H]2CSSC[C@H](NC(=O)[C@H](Cc3c[nH]c4ccccc34)NC(=O)[C@H](CCCNC(=N)N)NC(=O)[C@H](CCCNC(=N)N)NC(=O)[C@H]3CCCN3C(=O)CNC1=O)C(=O)N[C@@H](Cc1ccc(O)cc1)C(=O)N[C@@H](CCCNC(N)=O)C(=O)N[C@@H](CC(=O)O)C(=O)N1CCC[C@@H]1C(=O)N1CCC[C@H]1C(=O)N[C@@H](Cc1ccc(O)cc1)C(=O)N[C@@H](CCCNC(=N)N)C(=O)N[C@@H](CO)C(=O)N2 [Ex. 102] (cyclo(YRSCRG[dP]RRWCY[Cit]D[dP]P); disulfide 4-11)", "half-life at 10 μM [h]": 4.08}

Shift focus to the following entry.
INPUT: Entry N=C(N)NCCC[C@@H]1NC(=O)[C@@H]2CSSC[C@H](NC(=O)[C@H](Cc3ccc4ccccc4c3)NC(=O)[C@H](CCCNC(=N)N)NC(=O)[C@H](CCCNC(=N)N)NC(=O)[C@H]3CCCN3C(=O)CNC1=O)C(=O)N[C@@H](Cc1ccc(O)cc1)C(=O)N[C@@H](CCC(N)=O)C(=O)N[C@@H](CCCCN)C(=O)N1CCC[C@@H]1C(=O)N1CCC[C@H]1C(=O)N[C@@H](Cc1ccc(O)cc1)C(=O)N[C@@H](CCCNC(=N)N)C(=O)N[C@@H](CCC(=O)O)C(=O)N2 [Ex. 75] (cyclo(YRECRG[dP]RR[2Nal]CYQK[dP]P); disulfide 4-11) has what half-life at 10 μM?
OUTPUT: 2.37

====

# assayComment: Pharmacokinetic study (PK) after single i.v. and i.p. administration
# Assay type: in vivo, male CD-1 mice
# measurementSetup: male, CD-1, mouse, in vivo, iv, 2 mg/kg
# Method: 2.9. Pharmacokinetic Study (PK) 30 grams (±20%) male CD-1 mice obtained from Charles River Laboratories Deutschland GmbH were used in the study. The vehicle, physiological saline, was added to give a final concentration of 1 mg/ml of the compounds. […] PK analysis was performed on pooled data (generally n=2 or 3) using the software PK solutions 2.0™ (Summit Research Service, Montrose, Colo. 81401 USA). The area under the curve AUC was calculated by the linear trapezoidal rule. […]
endpointLabel: Tmax (h)
API: value field is a number in h; no unit string.

INPUT: # input compound: "N=C(N)NCCC[C@@H]1NC(=O)[C@@H]2CSSC[C@H](NC(=O)[C@H](Cc3ccc4ccccc4c3)NC(=O)[C@H](CCCNC(=N)N)NC(=O)[C@H](CCCNC(=N)N)NC(=O)[C@H]3CCCN3C(=O)CNC1=O)C(=O)N[C@@H](Cc1ccc(O)cc1)C(=O)N[C@@H](CCCNC(N)=O)C(=O)N[C@@H](CCCCN)C(=O)N1CCC[C@@H]1C(=O)N1CCC[C@H]1C(=O)N[C@@H](Cc1ccc(O)cc1)C(=O)N[C@@H](CCCNC(=N)N)C(=O)N[C@@H](CCCNC(N)=O)C(=O)N2" ; wanted: its Tmax
OUTPUT: 0
